Binary classification by melting point, with 100 °C as an inclusive lower bound for yes; all other cases are no.

Data request: In plain terms: is recorded melting point at least 100 °C for CC(C)COC(=O)c1ccccc1C(=O)OCC(C)C ?
Data returned: no

Data request: What do we get for CC1(C(=O)O)CCC(C=Cc2ccccc2)C1(C)C (configuration not stated) ?
Data returned: yes

Data request: Could you do the same for N=C(N)NCC(=O)O , please?
Data returned: yes

Data request: For COC(=O)c1ccno1 then?
Data returned: no

Data request: Cool, now Cc1ccc(C(c2ccc(C)o2)c2cc(I)ccc2O)o1
Data returned: yes

---

Consider the following compounds; for each one, report its melting point.
Answer in °C, number only, no unit symbol.

Data request: Need melting point of CCCC(=O)Cl , thanks.
Data returned: -89

Data request: Now the same for CCCCOC(=O)c1ccccc1C(=O)OCCCC
Data returned: -35

Data request: Could you do the same for CCCCCCCCCCCCCCCCCC(=O)OCCC , please?
Data returned: 28.9

Data request: Field entry: Nc1ccc(Cl)c(F)c1
Data returned: 60

Data request: Same thing, different compound: CC(=O)OC1CCC2C3CC=C4CC5(CCC4(C)C3CCC12C)OCCO5 (configuration not stated)
Data returned: 196

Data request: Entry to check: O=C1CN=C(c2ccccc2)c2cc(Cl)ccc2N1CC1CC1
Data returned: 146

---

Could you label it criterion met if measured melting point is 200 °C or higher, and criterion not met otherwise?

Data request: I'd appreciate it if you could say whether CC(C=Cc1ccc(C=CC(C)=NO)cc1)=NO has melting point at least equal to 200 °C.
Data returned: criterion met

Data request: Entry to check: N#Cc1ccc(N)cc1C#N
Data returned: criterion not met

Data request: Input Cc1sc(-c2ccccn2)nc1-c1ccccc1
Data returned: criterion not met

Data request: Subsequent entry: CN1Cc2c(N)cccc2C(c2ccccc2)C1 (stereo not drawn)
Data returned: criterion not met

Data request: Also, c1ccc(CCCc2ccccc2)cc1 please.
Data returned: criterion not met

Data request: Then what about the compound CC(C)(C)OC(=O)NC(CO)C(=O)O (stereo not drawn) ?
Data returned: criterion not met

Data request: Same question, Nc1nc(O)nc2[nH]ncc12 this time
Data returned: criterion met

---

Would you mind telling me the reported melting point of each entry?
Respond with the bare value in °C.

Data request: Could you share which melting point value was measured for CCC1CN2CCC1CC2C(O)c1ccnc2ccc(OC)cc12 (configuration not stated) ?
Data returned: 172

Data request: For Cc1ccc(N=C2NCCN2)c(Cl)c1 then?
Data returned: 149

Data request: Record: Clc1ccc(CBr)cc1
Data returned: 49

Data request: Consider next the compound Ic1cccc2ccccc12 in the same way.
Data returned: 4

Data request: Same read-out for CC(C)C(=O)C(C)C ?
Data returned: -69

---

quantity_name: melting point (°C)
Provide only the numeric value, understood in °C.

Data request: Tell me the measured melting point of CN(C)CCC=C1c2ccccc2COc2ccc(CC(=O)O)cc21 , please.
Data returned: 248

Data request: Another molecule to check: NN=C(N)C(S)=NN
Data returned: 150

Data request: Another: C1CCC2C(C1)CCC1C3CCCCC3CCC21 (stereo unspecified)
Data returned: 115

Data request: Try the molecule N#CC(c1ccc(Sc2ccccc2)nn1)c1c(Cl)cccc1Cl (stereo unspecified)
Data returned: 190
